# System: Klebsiella pneumoniae
# protocol notes: In vitro minimum inhibitory concentration against Klebsiella pneumoniae B54
# Format: functional
Give measured MIC for each item. Keep answers brief.
Lab book: enter the figure in µg/mL, no units written.

INPUT: Provide one value: measured MIC of CN1CCN(c2c(F)cc3c(=O)c(C(=O)O)c4scc5n4c3c2SC5)CC1
OUTPUT: 0.2

INPUT: Provide one value: measured MIC of CN1CCN(c2c(F)cc3c(=O)c(C(=O)O)c4scc5n4c3c2N(C)C5)CC1
OUTPUT: 0.05

INPUT: Provide one value: measured MIC of CN1CCN(c2c(F)cc3c(=O)c(C(=O)O)c4scc5n4c3c2N(Cc2ccccc2)C5)CC1.Cl
OUTPUT: 50

INPUT: Provide one value: measured MIC of CN1CCN(c2c(F)cc3c(=O)c(C(=O)O)c4scc5n4c3c2N(c2ccccc2)C5)CC1.Cl
OUTPUT: 3.13

INPUT: Provide one value: measured MIC of CN1CCN(c2c(F)cc3c(=O)c(C(=O)O)c4scc5n4c3c2OC5)CC1
OUTPUT: 0.1

INPUT: Provide one value: measured MIC of CC1COc2c(N3CCN(C)CC3)c(F)cc3c(=O)c(C(=O)O)cn1c23 (stereo not given) [OFLOXACIN]
OUTPUT: 0.1

INPUT: Provide one value: measured MIC of C=CCN1Cc2csc3c(C(=O)O)c(=O)c4cc(F)c(N5CCN(C)CC5)c1c4n23.Cl
OUTPUT: 12.5

INPUT: Provide one value: measured MIC of CN1CCN(c2c(F)cc3c(=O)c(C(=O)O)c4scc5n4c3c2N(C2CC2)C5)CC1
OUTPUT: 0.2

INPUT: Provide one value: measured MIC of CCN1Cc2csc3c(C(=O)O)c(=O)c4cc(F)c(N5CCN(C)CC5)c1c4n23
OUTPUT: 0.2

INPUT: Provide one value: measured MIC of CN1CCN(c2c(F)cc3c(=O)c(C(=O)O)c4scc5n4c3c2C(=O)C5)CC1.Cl
OUTPUT: 25

###

# Tested on: Escherichia coli
# protocol notes: In vitro minimum inhibitory concentration against Escherichia coli KL-16
# Type: functional
property name: log10(MIC) (log10 of the value in µg/mL)
Hi team, quick reminder: these entries are log10 of MIC (µg/mL).

INPUT: Provide one value: measured log10(MIC) of CN1CCN(c2c(F)cc3c(=O)c(C(=O)O)c4scc5n4c3c2OC5)CC1
OUTPUT: -1.30

INPUT: Provide one value: measured log10(MIC) of CN1CCN(c2c(F)cc3c(=O)c(C(=O)O)c4scc5n4c3c2N(C)C5)CC1
OUTPUT: -1.30

INPUT: Provide one value: measured log10(MIC) of CN1CCN(c2c(F)cc3c(=O)c(C(=O)O)c4scc5n4c3c2N(C2CC2)C5)CC1
OUTPUT: -0.70

INPUT: Provide one value: measured log10(MIC) of CCN1Cc2csc3c(C(=O)O)c(=O)c4cc(F)c(N5CCN(C)CC5)c1c4n23
OUTPUT: -0.70

INPUT: Provide one value: measured log10(MIC) of CN1CCN(c2c(F)cc3c(=O)c(C(=O)O)c4scc5n4c3c2N(Cc2ccccc2)C5)CC1.Cl
OUTPUT: 1.40

INPUT: Provide one value: measured log10(MIC) of CN1CCN(c2c(F)cc3c(=O)c(C(=O)O)c4scc5n4c3c2C(=O)C5)CC1.Cl
OUTPUT: 1.10

INPUT: Provide one value: measured log10(MIC) of CN1CCN(c2c(F)cc3c(=O)c(C(=O)O)c4scc5n4c3c2N(c2ccccc2)C5)CC1.Cl
OUTPUT: 0.50

INPUT: Provide one value: measured log10(MIC) of CN1CCN(c2c(F)cc3c(=O)c(C(=O)O)c4scc5n4c3c2SC5)CC1
OUTPUT: -0.70

INPUT: Provide one value: measured log10(MIC) of C=CCN1Cc2csc3c(C(=O)O)c(=O)c4cc(F)c(N5CCN(C)CC5)c1c4n23.Cl
OUTPUT: -0.11

###

# Tested on: Escherichia coli
# protocol notes: Inhibitory effect on DNA gyrase supercoiling activity against Escherichia coli KL-16
# Assay type: functional
Give measured log10(IC50) for each item. Keep answers brief.
Hi team, quick reminder: these entries are log10 of IC50 (mg/L).

INPUT: Provide one value: measured log10(IC50) of CN1CCN(c2c(F)cc3c(=O)c(C(=O)O)c4scc5n4c3c2N(c2ccccc2)C5)CC1.Cl
OUTPUT: 0.25

INPUT: Provide one value: measured log10(IC50) of CN1CCN(c2c(F)cc3c(=O)c(C(=O)O)c4scc5n4c3c2N(C)C5)CC1
OUTPUT: -0.80

INPUT: Provide one value: measured log10(IC50) of CN1CCN(c2c(F)cc3c(=O)c(C(=O)O)c4scc5n4c3c2SC5)CC1
OUTPUT: -0.62

INPUT: Provide one value: measured log10(IC50) of C=CCN1Cc2csc3c(C(=O)O)c(=O)c4cc(F)c(N5CCN(C)CC5)c1c4n23.Cl
OUTPUT: -0.35

INPUT: Provide one value: measured log10(IC50) of CN1CCN(c2c(F)cc3c(=O)c(C(=O)O)c4scc5n4c3c2OC5)CC1
OUTPUT: -0.85

INPUT: Provide one value: measured log10(IC50) of CN1CCN(c2c(F)cc3c(=O)c(C(=O)O)c4scc5n4c3c2N(C2CC2)C5)CC1
OUTPUT: -0.47

INPUT: Provide one value: measured log10(IC50) of CCN1Cc2csc3c(C(=O)O)c(=O)c4cc(F)c(N5CCN(C)CC5)c1c4n23
OUTPUT: -0.60

###

Give measured MIC for each item. Keep answers brief.
# System: Staphylococcus aureus
# protocol notes: In vitro minimum inhibitory concentration against Staphylococcus aureus IID 803
# Type: functional
Lab book: enter the figure in µg/mL, no units written.

INPUT: Provide one value: measured MIC of CN1CCN(c2c(F)cc3c(=O)c(C(=O)O)c4scc5n4c3c2OC5)CC1
OUTPUT: 0.1

INPUT: Provide one value: measured MIC of CC1COc2c(N3CCN(C)CC3)c(F)cc3c(=O)c(C(=O)O)cn1c23 (stereo not given) [OFLOXACIN]
OUTPUT: 0.39

INPUT: Provide one value: measured MIC of CN1CCN(c2c(F)cc3c(=O)c(C(=O)O)c4scc5n4c3c2N(C2CC2)C5)CC1
OUTPUT: 0.2

INPUT: Provide one value: measured MIC of CN1CCN(c2c(F)cc3c(=O)c(C(=O)O)c4scc5n4c3c2N(C)C5)CC1
OUTPUT: 0.05

INPUT: Provide one value: measured MIC of CN1CCN(c2c(F)cc3c(=O)c(C(=O)O)c4scc5n4c3c2SC5)CC1
OUTPUT: 0.2

INPUT: Provide one value: measured MIC of CCN1Cc2csc3c(C(=O)O)c(=O)c4cc(F)c(N5CCN(C)CC5)c1c4n23
OUTPUT: 0.2

INPUT: Provide one value: measured MIC of CN1CCN(c2c(F)cc3c(=O)c(C(=O)O)c4scc5n4c3c2C(=O)C5)CC1.Cl
OUTPUT: 6.25

INPUT: Provide one value: measured MIC of C=CCN1Cc2csc3c(C(=O)O)c(=O)c4cc(F)c(N5CCN(C)CC5)c1c4n23.Cl
OUTPUT: 0.39

INPUT: Provide one value: measured MIC of CN1CCN(c2c(F)cc3c(=O)c(C(=O)O)c4scc5n4c3c2N(c2ccccc2)C5)CC1.Cl
OUTPUT: 0.78

INPUT: Provide one value: measured MIC of CN1CCN(c2c(F)cc3c(=O)c(C(=O)O)c4scc5n4c3c2N(Cc2ccccc2)C5)CC1.Cl
OUTPUT: 3.13

###

# System: Pseudomonas aeruginosa
# protocol notes: In vitro minimum inhibitory concentration against Pseudomonas aeruginosa IFO 3445
# Type: functional
Param label: returns T when MIC < 3 µg/mL, returns F otherwise, including exact equality.

INPUT: Item CN1CCN(c2c(F)cc3c(=O)c(C(=O)O)c4scc5n4c3c2N(Cc2ccccc2)C5)CC1.Cl : MIC beneath 3 µg/mL, strictly?
OUTPUT: F

INPUT: Item CCN1Cc2csc3c(C(=O)O)c(=O)c4cc(F)c(N5CCN(C)CC5)c1c4n23 : MIC beneath 3 µg/mL, strictly?
OUTPUT: F

INPUT: Item CN1CCN(c2c(F)cc3c(=O)c(C(=O)O)c4scc5n4c3c2N(C2CC2)C5)CC1 : MIC beneath 3 µg/mL, strictly?
OUTPUT: T

INPUT: Item CN1CCN(c2c(F)cc3c(=O)c(C(=O)O)c4scc5n4c3c2N(C)C5)CC1 : MIC beneath 3 µg/mL, strictly?
OUTPUT: T

INPUT: Item CN1CCN(c2c(F)cc3c(=O)c(C(=O)O)c4scc5n4c3c2OC5)CC1 : MIC beneath 3 µg/mL, strictly?
OUTPUT: T

INPUT: Item CC1COc2c(N3CCN(C)CC3)c(F)cc3c(=O)c(C(=O)O)cn1c23 (stereo not given) [OFLOXACIN] : MIC beneath 3 µg/mL, strictly?
OUTPUT: T

INPUT: Item CN1CCN(c2c(F)cc3c(=O)c(C(=O)O)c4scc5n4c3c2C(=O)C5)CC1.Cl : MIC beneath 3 µg/mL, strictly?
OUTPUT: F

INPUT: Item C=CCN1Cc2csc3c(C(=O)O)c(=O)c4cc(F)c(N5CCN(C)CC5)c1c4n23.Cl : MIC beneath 3 µg/mL, strictly?
OUTPUT: T

INPUT: Item CN1CCN(c2c(F)cc3c(=O)c(C(=O)O)c4scc5n4c3c2SC5)CC1 : MIC beneath 3 µg/mL, strictly?
OUTPUT: F

INPUT: Item CN1CCN(c2c(F)cc3c(=O)c(C(=O)O)c4scc5n4c3c2N(c2ccccc2)C5)CC1.Cl : MIC beneath 3 µg/mL, strictly?
OUTPUT: F
